- Target Or System: MDCC-Asp244Cys TM-PaDDAH (Pseudomonas aeruginosa, UniProt Q9I4E3, C249S/D244C/R40E/R98H)
- Construct: polyhistidine (cleaved yes)
- Assay Procedure: MDCC fluorescence titration, Asp244Cys variant
- Particulars: static MDCC fluorescence titration, 25 °C, buffer A; fluorescence decreased; read-out: equilibrium dissociation constant
Assay Endpoint: pKd
Scale explanation: pKd corresponds to minus log10 of a concentration expressed in moles per litre.

For MDCC-Asp244Cys TM-PaDDAH (Pseudomonas aeruginosa, UniProt Q9I4E3, C249S/D244C/R40E/R98H), provide pKd of NC(=O)NCCC[C@H](N)C(=O)O [L-citrulline] please.
4.63

----------
- Target Or System: DM-PaDDAH (Arg40Glu/Arg98His double mutant PaDDAH) (Pseudomonas aeruginosa, UniProt Q9I4E3, R40E/R98H)
- Construct: the 254 residue DM-PaDDAH; polyhistidine (cleaved yes)
- Sequence (Q9I4E3 1-254 R40E/R98H): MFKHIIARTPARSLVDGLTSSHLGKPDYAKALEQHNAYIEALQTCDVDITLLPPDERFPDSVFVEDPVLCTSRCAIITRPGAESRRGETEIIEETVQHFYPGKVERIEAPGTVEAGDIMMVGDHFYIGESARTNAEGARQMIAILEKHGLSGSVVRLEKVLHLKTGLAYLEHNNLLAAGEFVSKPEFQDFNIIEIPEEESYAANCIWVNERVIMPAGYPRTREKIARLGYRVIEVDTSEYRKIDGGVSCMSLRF
- Assay Procedure: NMR 15N,1H-HSQC ligand titration of DM-PaDDAH
- Particulars: NMR chemical shift titration, 0.3 mM DM-PaDDAH, 1:1 model, buffer A pH 7.0, 25 °C; read-out: dissociation constant KD^(DM/L-cit)
Assay Endpoint: Kd
Mention the unit after the number when you answer.

What measured Kd goes with NC(=O)NCCC[C@H](N)C(=O)O ?
3.6 mM

----------
- Target Or System: MDCC-Ser84Cys TM-PaDDAH (Pseudomonas aeruginosa, UniProt Q9I4E3, C249S/R40E/R98H/S84C)
- Construct: polyhistidine (cleaved yes)
- Assay Procedure: MDCC fluorescence titration, Ser84Cys variant
- Particulars: static MDCC fluorescence titration, 25 °C, buffer A; fluorescence decreased; read-out: equilibrium dissociation constant
- Procedure: DM- or TM-PaDDAH constructs were mutated to contain an additional, solvent-exposed Cys residue at residue positions corresponding to Thr19, Ser 20, Ser84, and Asp244. […] The labeled protein concentration was measured by spectrophotometry (ε430 (MDCC) = 46 800 M^–1 cm^–1, ε280(MDCC) = 7470 M^–1 cm^–1, ε280(PaDDAH) = 18 910 M^–1 cm^–1). Formation of the product was assessed by electrospray ionization mass spectrometry. […]
Assay Endpoint: Kd (µM)
Response body: numeric value in µM, unit text excluded.

What measured Kd goes with NC(=O)NCCC[C@H](N)C(=O)O [L-citrulline] ?
15.7

----------
- Target Or System: MDCC-Ser20Cys TM-PaDDAH (fl-TM-PaDDAH) (Pseudomonas aeruginosa, UniProt Q9I4E3, C249S/R40E/R98H/S20C)
- Construct: polyhistidine (cleaved yes); made in house; host or cells: Escherichia coli BL21 (DE3)
- Assay Procedure: Stopped-flow fluorescence binding kinetics with fl-TM-PaDDAH
- Particulars: from stopped-flow binding kinetics; read-out: predicted equilibrium dissociation constant KD^(TM/L-cit) (= koff/kon)
- Method: Stopped-flow experiments were carried out in buffer A at 25 °C using a HiTech SF61 DX2 stopped-flow instrument equipped with a Xe/Hg lamp (TgK Scientific, UK). MDCC fluorescence was excited at 436 nm, and emission was detected by a photomultiplier after a 455 nm cutoff filter (Schott glass). […] Each fluorescence time course was fitted to a single exponential function [drawing 1] with the observed first-order rate constant, kobs, and maximum fluorescence change, ΔFmax. […]
Assay Endpoint: Kd (µM)
Response body: numeric value in µM, unit text excluded.

What measured Kd goes with NC(=O)NCCC[C@H](N)C(=O)O [L-citrulline] ?
8.4

This collection of values is drawn from paper PMC3945819.
